MEASURED TARGET: PPAR alpha (Homo sapiens, UniProt Q07869)
Sequence (Q07869 200-468 limits assumed): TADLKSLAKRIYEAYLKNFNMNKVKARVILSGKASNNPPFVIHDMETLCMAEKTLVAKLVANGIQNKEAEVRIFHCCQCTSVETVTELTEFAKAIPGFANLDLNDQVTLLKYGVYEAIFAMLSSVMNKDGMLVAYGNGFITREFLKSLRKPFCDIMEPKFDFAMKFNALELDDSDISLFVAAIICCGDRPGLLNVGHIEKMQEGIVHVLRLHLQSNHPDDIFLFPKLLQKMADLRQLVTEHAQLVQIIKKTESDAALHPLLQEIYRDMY
ASSAY METHOD TEXT: PPAR transactivation test, PPAR alpha (HeLN reporter cells)
COND: luciferase reporter, Gal-hPPAR alpha, n.a. means not active, read-out: PPAR alpha Kd app
OBSERVABLE: Kd
Remember to quote the unit after the number.

Query string: Entry under review: CCCCCCCC(=O)N(C)Cc1cccc(-c2ccc(C[C@H](OCC)C(=O)O)cc2)c1 [Example 5] . Reported Kd?
Result string: 500 nM
